- test protocol: Half-lives and pharmacokinetic parameters of polypeptides vs HM-1
- experimental setup: in vivo
Peptide text beside a SMILES is read from it. * marks the point of attachment. X55 = O=C1C=CC(=O)N1c1ccccc1CCCCCCCCC(=O)*; X30 = O=C1C=CC(=O)N1CCOCCOCC(=O)*
value type: MRT inf (h)

compound	value type	quantitative readout
C[C@H](NC(=O)CNC(=O)[C@H](CCCNC(=N)N)NC(=O)CCCCCCCCc1ccccc1N1C(=O)C=CC1=O)C(=O)N[C@@H](CC(=O)O)C(=O)N[C@@H](CCCNC(=N)N)C(=O)N[C@@H](C)C(=O)NCC(=O)NCC(=O)NCC(=O)NCC(=O)N[C@@H](CCCNC(=N)N)C(=O)NCC(=O)N[C@@H](CC(=O)O)C(=O)O [X20] (X55-RGADRAGGGGRGD-OH)	MRT inf	57.1
C[C@H](NC(=O)CNC(=O)[C@H](CCCNC(=N)N)NC(=O)COCCOCCN1C(=O)C=CC1=O)C(=O)N[C@@H](CC(=O)O)C(=O)N[C@@H](CCCNC(=N)N)C(=O)N[C@@H](C)C(=O)NCC(=O)NCC(=O)NCC(=O)NCC(=O)N[C@@H](CCCNC(=N)N)C(=O)NCC(=O)N[C@@H](CC(=O)O)C(=O)O [X56] (X30-RGADRAGGGGRGD-OH)	MRT inf	59

====

Reported Inhibition rate (%) values for the following compounds.
- Test system: human retinal capillary endothelial cells (HRCECs)
- test protocol: MTT proliferation inhibition on HRCECs
- Format: cell-based
- experimental setup: 48 h, dose 0.2 μM
Peptide text beside a SMILES is read from it. * marks the point of attachment. X65 = O=C1C=CC(=O)N1c1cccc(CCCCCCCCCCCCC(=O)*)c1; X58 = O=C1C=CC(=O)N1c1cccc(CCCCCCCCCCCC(=O)*)c1; X66 = O=C1C=CC(=O)N1c1cccc(CCCCCCCC(=O)*)c1

compound	experimental system	Inhibition rate (%) / %*
C[C@H](NC(=O)CNC(=O)[C@H](CCCNC(=N)N)NC(=O)CCCCCCCCCCCCc1cccc(N2C(=O)C=CC2=O)c1)C(=O)N[C@@H](CC(=O)O)C(=O)N[C@@H](CCCNC(=N)N)C(=O)N[C@@H](C)C(=O)NCC(=O)NCC(=O)NCC(=O)NCC(=O)N[C@@H](CCCNC(=N)N)C(=O)NCC(=O)N[C@@H](CC(=O)O)C(=O)O [X36] (X65-RGADRAGGGGRGD-OH)	human retinal capillary endothelial cells (HRCECs)	64.71
C[C@H](NC(=O)CNC(=O)[C@H](CCCNC(=N)N)NC(=O)CCCCCCCCCCCc1cccc(N2C(=O)C=CC2=O)c1)C(=O)N[C@@H](CC(=O)O)C(=O)N[C@@H](CCCNC(=N)N)C(=O)N[C@@H](C)C(=O)NCC(=O)NCC(=O)NCC(=O)NCC(=O)N[C@@H](CCCNC(=N)N)C(=O)NCC(=O)N[C@@H](CC(=O)O)C(=O)O [X35] (X58-RGADRAGGGGRGD-OH)	human retinal capillary endothelial cells (HRCECs)	57.45
C[C@H](NC(=O)CNC(=O)[C@H](CCCNC(=N)N)NC(=O)CCCCCCCc1cccc(N2C(=O)C=CC2=O)c1)C(=O)N[C@@H](CC(=O)O)C(=O)N[C@@H](CCCNC(=N)N)C(=O)N[C@@H](C)C(=O)NCC(=O)NCC(=O)NCC(=O)NCC(=O)N[C@@H](CCCNC(=N)N)C(=O)NCC(=O)N[C@@H](CC(=O)O)C(=O)O [X31] (X66-RGADRAGGGGRGD-OH)	human retinal capillary endothelial cells (HRCECs)	63.50

====

- Test system: splenic lymphocytes
- test protocol: Proliferation of splenic lymphocytes in mice (ConA, MTT)
- Format: cell-based
- experimental setup: polypeptide dose 0.1 μM, ConA-stimulated mouse splenic lymphocytes, 48 h
- Procedure: Spleens of mice were taken out under aseptic conditions, washed with blank 1640 culture medium 3 times, ground with a 5 mL syringe core, filtered with a 200-mesh sieve, made into a single cell suspension. The suspension was centrifuged (1000 rpm×5 min), and supernatant was removed. […] The cells were counted and the cell concentration was adjusted to 5×10^6 cells/mL, and the cells were cultured in a 96-well culture plate. […]
Peptide text beside a SMILES is read from it. * marks the point of attachment. X58 = O=C1C=CC(=O)N1c1cccc(CCCCCCCCCCCC(=O)*)c1; X74 = O=C1C=CC(=O)N1c1cccc(CCCCCCCCCCC(=O)*)c1; X59 = O=C1C=CC(=O)N1c1cccc(CCCCCCCCC(=O)*)c1; X72 = O=C1C=CC(=O)N1c1ccccc1CCCCCCCCCCC(=O)*; X60 = O=C1C=CC(=O)N1c1ccccc1CCCCCCCCCC(=O)*; X55 = O=C1C=CC(=O)N1c1ccccc1CCCCCCCCC(=O)*; X46 = O=C1C=CC(=O)N1c1cccc(CCCCC(=O)*)c1; X63 = O=C1C=CC(=O)N1c1ccccc1CCCCCCC(=O)*; X61 = O=C1C=CC(=O)N1c1cccc(CCCC(=O)*)c1; X79 = O=C1C=CC(=O)N1c1cccc(CCC(=O)*)c1
Doc: threshold 0.5 (exclusive). Items with A570 nm/A630 nm beneath it return Satisfied; others return Not satisfied.

compound	label class
C[C@H](NC(=O)CNC(=O)[C@H](CCCNC(=N)N)NC(=O)CCCCCCc1ccccc1N1C(=O)C=CC1=O)C(=O)N[C@@H](CC(=O)O)C(=O)N[C@@H](CCCNC(=N)N)C(=O)N[C@@H](C)C(=O)NCC(=O)NCC(=O)NCC(=O)NCC(=O)N[C@@H](CCCNC(=N)N)C(=O)NCC(=O)N[C@@H](CC(=O)O)C(=O)O [X18] (X63-RGADRAGGGGRGD-OH)	Not satisfied
C[C@H](NC(=O)CNC(=O)[C@H](CCCNC(=N)N)NC(=O)CCCCCCCCCCCc1cccc(N2C(=O)C=CC2=O)c1)C(=O)N[C@@H](CC(=O)O)C(=O)N[C@@H](CCCNC(=N)N)C(=O)N[C@@H](C)C(=O)NCC(=O)NCC(=O)NCC(=O)NCC(=O)N[C@@H](CCCNC(=N)N)C(=O)NCC(=O)N[C@@H](CC(=O)O)C(=O)O [X35] (X58-RGADRAGGGGRGD-OH)	Not satisfied
C[C@H](NC(=O)CNC(=O)[C@H](CCCNC(=N)N)NC(=O)CCCCCCCCCc1ccccc1N1C(=O)C=CC1=O)C(=O)N[C@@H](CC(=O)O)C(=O)N[C@@H](CCCNC(=N)N)C(=O)N[C@@H](C)C(=O)NCC(=O)NCC(=O)NCC(=O)NCC(=O)N[C@@H](CCCNC(=N)N)C(=O)NCC(=O)N[C@@H](CC(=O)O)C(=O)O [X21] (X60-RGADRAGGGGRGD-OH)	Not satisfied
C[C@H](NC(=O)CNC(=O)[C@H](CCCNC(=N)N)NC(=O)CCc1cccc(N2C(=O)C=CC2=O)c1)C(=O)N[C@@H](CC(=O)O)C(=O)N[C@@H](CCCNC(=N)N)C(=O)N[C@@H](C)C(=O)NCC(=O)NCC(=O)NCC(=O)NCC(=O)N[C@@H](CCCNC(=N)N)C(=O)NCC(=O)N[C@@H](CC(=O)O)C(=O)O [X26] (X79-RGADRAGGGGRGD-OH)	Not satisfied
C[C@H](NC(=O)CNC(=O)[C@H](CCCNC(=N)N)NC(=O)CCCCCCCCCCc1ccccc1N1C(=O)C=CC1=O)C(=O)N[C@@H](CC(=O)O)C(=O)N[C@@H](CCCNC(=N)N)C(=O)N[C@@H](C)C(=O)NCC(=O)NCC(=O)NCC(=O)NCC(=O)N[C@@H](CCCNC(=N)N)C(=O)NCC(=O)N[C@@H](CC(=O)O)C(=O)O [X22] (X72-RGADRAGGGGRGD-OH)	Satisfied
C[C@H](NC(=O)CNC(=O)[C@H](CCCNC(=N)N)NC(=O)CCCCCCCCCCc1cccc(N2C(=O)C=CC2=O)c1)C(=O)N[C@@H](CC(=O)O)C(=O)N[C@@H](CCCNC(=N)N)C(=O)N[C@@H](C)C(=O)NCC(=O)NCC(=O)NCC(=O)NCC(=O)N[C@@H](CCCNC(=N)N)C(=O)NCC(=O)N[C@@H](CC(=O)O)C(=O)O [X34] (X74-RGADRAGGGGRGD-OH)	Satisfied
C[C@H](NC(=O)CNC(=O)[C@H](CCCNC(=N)N)NC(=O)CCCCCCCCc1cccc(N2C(=O)C=CC2=O)c1)C(=O)N[C@@H](CC(=O)O)C(=O)N[C@@H](CCCNC(=N)N)C(=O)N[C@@H](C)C(=O)NCC(=O)NCC(=O)NCC(=O)NCC(=O)N[C@@H](CCCNC(=N)N)C(=O)NCC(=O)N[C@@H](CC(=O)O)C(=O)O [X32] (X59-RGADRAGGGGRGD-OH)	Not satisfied
C[C@H](NC(=O)CNC(=O)[C@H](CCCNC(=N)N)NC(=O)CCCCCCCCc1ccccc1N1C(=O)C=CC1=O)C(=O)N[C@@H](CC(=O)O)C(=O)N[C@@H](CCCNC(=N)N)C(=O)N[C@@H](C)C(=O)NCC(=O)NCC(=O)NCC(=O)NCC(=O)N[C@@H](CCCNC(=N)N)C(=O)NCC(=O)N[C@@H](CC(=O)O)C(=O)O [X20] (X55-RGADRAGGGGRGD-OH)	Not satisfied
C[C@H](NC(=O)CNC(=O)[C@H](CCCNC(=N)N)NC(=O)CCCc1cccc(N2C(=O)C=CC2=O)c1)C(=O)N[C@@H](CC(=O)O)C(=O)N[C@@H](CCCNC(=N)N)C(=O)N[C@@H](C)C(=O)NCC(=O)NCC(=O)NCC(=O)NCC(=O)N[C@@H](CCCNC(=N)N)C(=O)NCC(=O)N[C@@H](CC(=O)O)C(=O)O [X27] (X61-RGADRAGGGGRGD-OH)	Not satisfied
C[C@H](NC(=O)CNC(=O)[C@H](CCCNC(=N)N)NC(=O)CCCCc1cccc(N2C(=O)C=CC2=O)c1)C(=O)N[C@@H](CC(=O)O)C(=O)N[C@@H](CCCNC(=N)N)C(=O)N[C@@H](C)C(=O)NCC(=O)NCC(=O)NCC(=O)NCC(=O)N[C@@H](CCCNC(=N)N)C(=O)NCC(=O)N[C@@H](CC(=O)O)C(=O)O [X28] (X46-RGADRAGGGGRGD-OH)	Not satisfied
